# System: Lathyrus cicera amine oxidase (LCAO)
# Construct: copper/TPQ enzyme
# Protocol details: coupled peroxidase assay (AAP/DCHBS, […] nm), initial rates
# Format: biochemical
# Condition: pH 7, 20 mM phosphate, 25 °C, air O2

# Compound, Assayed system, Result units, Km
data = [
    ("CN(C)CCN [18a]", "Lathyrus cicera amine oxidase (LCAO)", "µM", 230),
    ("COc1ccc(CCN)cc1O [3a]", "Lathyrus cicera amine oxidase (LCAO)", "µM", 1580),
    ("NCCN1CCOCC1 [12a]", "Lathyrus cicera amine oxidase (LCAO)", "µM", 6460),
    ("COc1ccc(CCN)cc1OC [5a]", "Lathyrus cicera amine oxidase (LCAO)", "µM", 1000),
    ("COc1ccc(CCN)cc1 [6a]", "Lathyrus cicera amine oxidase (LCAO)", "µM", 5370),
    ("NCCc1ccc(O)cc1 [1a]", "Lathyrus cicera amine oxidase (LCAO)", "µM", 600),
    ("CN(C)CCCN [19a]", "Lathyrus cicera amine oxidase (LCAO)", "µM", 8800),
    ("NCCCn1ccnc1 [16a]", "Lathyrus cicera amine oxidase (LCAO)", "µM", 610),
    ("COc1cccc(CCN)c1 [7a]", "Lathyrus cicera amine oxidase (LCAO)", "µM", 470),
    ("NCCCN1CCCC1 [17a]", "Lathyrus cicera amine oxidase (LCAO)", "µM", 2300),
]

* * *

# Tested on: Lathyrus cicera amine oxidase (LCAO)
# Construct: copper/TPQ enzyme
# Protocol details: coupled peroxidase assay (AAP/DCHBS, […] nm), initial rates
# Format: biochemical
# Condition: pH 7, 20 mM phosphate, 25 °C, air O2
Entries annotated with measured Km

# Compound, Km
rows = [
    ("NCCc1ccccc1", "1200 µM"),
    ("COc1cc(CCN)ccc1O", "1310 µM"),
    ("NCCc1ccc2c(c1)OCO2", "3830 µM"),
    ("NCCC1=CCCCC1 [14a]", "1900 µM"),
    ("NCCc1ccc(Cl)cc1 [10a]", "3380 µM"),
    ("NCCCN1CCOCC1 [15a]", "17000 µM"),
    ("NCCN1CCCCC1 [11a]", "420 µM"),
    ("NCCC1CCCCC1 [13a]", "1440 µM"),
]
